The entries below are paired with their reported IC50.
# tested_on: EZH2 (Homo sapiens (Human), UniProt Q15910)
# Sequence (Q15910 other isoform, or with tags, fused parts or gaps): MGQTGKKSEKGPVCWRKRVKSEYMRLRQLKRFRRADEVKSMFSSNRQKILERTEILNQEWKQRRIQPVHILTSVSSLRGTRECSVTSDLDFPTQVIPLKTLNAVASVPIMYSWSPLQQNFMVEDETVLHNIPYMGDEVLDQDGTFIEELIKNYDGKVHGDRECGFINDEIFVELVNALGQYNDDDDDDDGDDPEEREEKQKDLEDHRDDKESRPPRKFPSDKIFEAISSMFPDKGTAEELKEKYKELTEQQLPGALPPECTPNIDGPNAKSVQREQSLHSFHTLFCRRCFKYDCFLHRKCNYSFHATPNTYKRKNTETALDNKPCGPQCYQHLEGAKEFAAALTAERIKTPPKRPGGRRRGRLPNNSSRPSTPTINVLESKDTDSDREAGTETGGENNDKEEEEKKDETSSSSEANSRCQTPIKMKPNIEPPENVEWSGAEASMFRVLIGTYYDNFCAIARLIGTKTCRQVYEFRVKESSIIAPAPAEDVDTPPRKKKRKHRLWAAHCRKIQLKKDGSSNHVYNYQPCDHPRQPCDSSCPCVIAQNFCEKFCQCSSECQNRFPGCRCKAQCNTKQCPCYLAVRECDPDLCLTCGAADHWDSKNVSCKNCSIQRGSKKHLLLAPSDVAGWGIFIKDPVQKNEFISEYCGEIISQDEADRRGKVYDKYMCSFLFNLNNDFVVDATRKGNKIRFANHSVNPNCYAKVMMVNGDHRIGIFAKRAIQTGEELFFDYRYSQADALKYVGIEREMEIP
# Sequence (O75530 whole entry partner): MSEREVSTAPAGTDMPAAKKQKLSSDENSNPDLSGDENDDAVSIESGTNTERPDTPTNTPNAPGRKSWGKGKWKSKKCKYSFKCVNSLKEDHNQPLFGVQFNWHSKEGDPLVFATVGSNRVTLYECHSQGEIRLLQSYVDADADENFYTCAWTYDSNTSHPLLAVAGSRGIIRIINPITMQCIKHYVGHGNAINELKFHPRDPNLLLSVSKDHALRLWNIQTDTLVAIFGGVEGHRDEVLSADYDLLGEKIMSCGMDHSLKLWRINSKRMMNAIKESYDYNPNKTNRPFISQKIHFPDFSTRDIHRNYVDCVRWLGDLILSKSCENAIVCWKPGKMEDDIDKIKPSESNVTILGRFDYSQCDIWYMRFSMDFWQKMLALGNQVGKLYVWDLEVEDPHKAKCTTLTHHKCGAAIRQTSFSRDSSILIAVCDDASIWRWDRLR
# Sequence (Q15022 whole entry partner): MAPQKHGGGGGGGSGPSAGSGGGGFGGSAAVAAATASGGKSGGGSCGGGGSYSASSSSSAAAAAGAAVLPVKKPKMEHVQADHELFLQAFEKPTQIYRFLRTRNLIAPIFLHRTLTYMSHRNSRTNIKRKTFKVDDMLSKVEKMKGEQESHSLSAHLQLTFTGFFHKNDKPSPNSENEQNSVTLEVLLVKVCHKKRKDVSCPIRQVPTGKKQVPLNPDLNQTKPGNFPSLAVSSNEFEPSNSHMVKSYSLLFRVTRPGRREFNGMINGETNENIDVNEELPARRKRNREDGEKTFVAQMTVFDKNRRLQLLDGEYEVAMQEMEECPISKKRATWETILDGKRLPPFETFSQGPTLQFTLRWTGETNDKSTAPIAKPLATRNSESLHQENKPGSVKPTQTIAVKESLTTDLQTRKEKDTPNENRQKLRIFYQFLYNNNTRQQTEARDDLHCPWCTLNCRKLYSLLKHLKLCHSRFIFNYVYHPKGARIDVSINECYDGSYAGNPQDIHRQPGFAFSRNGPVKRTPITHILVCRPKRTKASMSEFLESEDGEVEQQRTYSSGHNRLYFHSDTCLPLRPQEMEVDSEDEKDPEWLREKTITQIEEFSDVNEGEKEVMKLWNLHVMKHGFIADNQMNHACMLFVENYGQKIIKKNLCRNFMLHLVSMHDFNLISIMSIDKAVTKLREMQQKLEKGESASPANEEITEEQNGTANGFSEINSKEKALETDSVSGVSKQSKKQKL
# Sequence (Q09028 whole entry partner): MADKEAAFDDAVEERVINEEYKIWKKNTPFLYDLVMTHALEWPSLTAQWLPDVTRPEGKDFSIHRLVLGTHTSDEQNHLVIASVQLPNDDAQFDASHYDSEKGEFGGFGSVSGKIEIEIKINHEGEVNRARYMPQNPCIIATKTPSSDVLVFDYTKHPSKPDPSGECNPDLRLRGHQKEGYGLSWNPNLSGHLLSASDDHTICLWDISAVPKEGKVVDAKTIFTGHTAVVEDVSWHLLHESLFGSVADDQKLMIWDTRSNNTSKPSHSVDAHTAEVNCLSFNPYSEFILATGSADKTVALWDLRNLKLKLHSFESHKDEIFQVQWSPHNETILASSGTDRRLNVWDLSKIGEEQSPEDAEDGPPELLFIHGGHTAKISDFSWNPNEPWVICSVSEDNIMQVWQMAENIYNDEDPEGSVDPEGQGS
# protocol_summary: PRC2 enzyme assay on peptide substrates
# Type: biochemical
# stated_conditions: PRC2 enzyme assays on peptide substrates; 4 nM enzyme, 30 min preincubation at 25° C.; read-out: EZH2 IC50

compound: Cc1cc(C)c(CNC(=O)c2cc(-c3ccc(CN4CCOCC4)cc3)cc3c2cnn3C(C)C)c(=O)[nH]1
experimental_value: < 0.3 µM
//
compound: Cc1cc(C)c(CNC(=O)c2cc(N3CCC(=O)CC3)nc3c2cnn3C(C)C)c(=O)[nH]1
experimental_value: 1 to 3 µM

Lookup: Fill in the recorded IC50 for this compound, with EZH2 (Homo sapiens (Human), UniProt Q15910) as test system: "Cc1cc(C)c(CNC(=O)c2cc(-c3cccc(CNCCN4CCOCC4)c3)nc3c2cnn3C(C)C)c(=O)[nH]1"
Found: 0.3 to 1 µM

Lookup: Fill in the recorded IC50 for this compound, with EZH2 (Homo sapiens (Human), UniProt Q15910) as test system: "Cc1cc(C)c(CNC(=O)c2cc(-c3ccc(CN(C)C)cc3)nc3c2cnn3C(C)C)c(=O)[nH]1"
Found: 0.3 to 1 µM

----------
The entries below are paired with their reported IC50.
# tested_on: EZH2 (Homo sapiens (Human), UniProt Q15910)
# protocol_summary: PRC2 enzyme assay on peptide substrates
# Format: biochemical
# stated_conditions: PRC2 enzyme assays on peptide substrates; 4 nM enzyme, 30 min preincubation at 25° C.; read-out: EZH2 IC50

molecule: Cc1cc(C)c(CNC(=O)c2cc(C3CCN(CCN)CC3)cc3c2cnn3C2CCCC2)c(=O)[nH]1
tested_on: EZH2 (Homo sapiens (Human), UniProt Q15910)
IC50: < 0.3 µM
//
molecule: Cc1cc(C)c(CNC(=O)c2cc(Br)cc3c2cnn3C2CCN(C(=O)C(C)(C)C)C2)c(=O)[nH]1 (stereo not shown)
tested_on: EZH2 (Homo sapiens (Human), UniProt Q15910)
IC50: < 0.3 µM
//
molecule: Cc1cc(C)c(CNC(=O)c2cc(Br)nc3c2cnn3C(C)C)c(=O)[nH]1
tested_on: EZH2 (Homo sapiens (Human), UniProt Q15910)
IC50: 1 to 3 µM
//
molecule: Cc1cc(C)c(CNC(=O)c2cc(C3=CC(C)(C)NC(C)(C)C3)nc3c2cnn3C)c(=O)[nH]1
tested_on: EZH2 (Homo sapiens (Human), UniProt Q15910)
IC50: 10 to 50 µM
//
molecule: Cc1cc(C)c(CNC(=O)c2cc(C3CCCCC3)nc3c2cnn3C(C)C)c(=O)[nH]1
tested_on: EZH2 (Homo sapiens (Human), UniProt Q15910)
IC50: 3 to 10 µM
//
molecule: Cc1cc[nH]c(=O)c1CNC(=O)c1cc(-c2ccc3c(c2)OCCO3)nc2c1cnn2C(C)C
tested_on: EZH2 (Homo sapiens (Human), UniProt Q15910)
IC50: 10 to 50 µM

Could you now consider this next molecule?
Lookup: Look up IC50: "Cc1cc(C)c(CNC(=O)c2cc(C3=CCN(C(=O)CN(C)C)CC3)nc3c2cnn3C(C)C)c(=O)[nH]1"
Found: 0.3 to 1 µM

----------
The entries below are paired with their reported IC50.
# tested_on: EZH2 (Homo sapiens (Human), UniProt Q15910)
# protocol_summary: PRC2 enzyme assay on peptide substrates
# Format: biochemical
# stated_conditions: PRC2 enzyme assays on peptide substrates; 4 nM enzyme, 30 min preincubation at 25° C.; read-out: EZH2 IC50

compound: Cc1cc(C)c(CNC(=O)c2cc(C3CCN(CCN(C)C)CC3)cc3c2cnn3C2CCCC2)c(=O)[nH]1 [Compound D-46]
tested_on: EZH2 (Homo sapiens (Human), UniProt Q15910)
IC50: < 300 nM

Lookup: Look up IC50: Cc1cc(C)c(CNC(=O)c2cc(C3=CCCCC3)nc3c2cnn3C(C)C)c(=O)[nH]1 [Compound B-81]
Found: 300 to 1000 nM

Lookup: Look up IC50: Cc1cc(C)c(CNC(=O)c2cc(C3CCN(CCC(F)(F)F)CC3)nc3c2cnn3C(C)C)c(=O)[nH]1 [Compound B-71]
Found: 300 to 1000 nM

Lookup: Look up IC50: Cc1cc(C)c(CNC(=O)c2cc(C3=CCN(C(=O)C4CCN(C)CC4)CC3)cc3c2cnn3C2CCCC2)c(=O)[nH]1 [Compound D-5]
Found: < 300 nM

Lookup: Look up IC50: Cc1cc(C)c(CNC(=O)c2cc(-c3ccc(CN4CCC[C@@H]4C(N)=O)cc3)cc3c2cnn3C2CCCC2)c(=O)[nH]1 [Compound C-13]
Found: < 300 nM

Lookup: Look up IC50: Cc1cc(C)c(CNC(=O)c2cc(-c3ccc(COCCN4CCOCC4)cc3)cc3c2cnn3C2CCCC2)c(=O)[nH]1 [Compound C-20]
Found: < 300 nM

Lookup: Look up IC50: Cc1cc(C)c(CNC(=O)c2cc(-c3ccc(C(=O)NCCN(C)C)cc3)nc3c2cnn3C(C)C)c(=O)[nH]1 [Compound A-18]
Found: < 300 nM

Lookup: Look up IC50: Cc1cc(C)c(CNC(=O)c2cc(C3=CCN(C(=O)[C@H](C)N)CC3)nc3c2cnn3C(C)C)c(=O)[nH]1 [Compound B-46]
Found: 300 to 1000 nM

Lookup: Look up IC50: CC(=O)N1CC=C(c2cc(C(=O)NCc3c(C)cc(C)[nH]c3=O)c3cnn(C4CCCC4)c3c2)CC1 [Compound D-4]
Found: < 300 nM

All values here come from patent US9637472B2.
